// provenance: patent US7732449B2

study.system: UniProt P07858
method.description: Cathepsin B inhibition, fluorogenic peptide substrate kinetic assay (selectivity)
Format: biochemical
particulars: ratio of cathepsin B inhibition constant to cathepsin S inhibition constant
experimental.readout: Selectivity for Cat. S over Cat. B

CC(C)[C@@H](CN1CC(C)(C)c2cc(F)ccc21)NC(=O)O[C@@H](CS(=O)(=O)Cc1ccccc1)C(=O)N1CCOCC1 | + (+, >10)
C[C@@H](CNc1ccc(OC(F)(F)F)cc1)NC(=O)[C@@H](CC(=O)N1CCS(=O)(=O)CC1)CC1CCCCC1 | ++ (++, >100)
COc1ccc([C@H](CC(=O)N2CCOCC2)C(=O)N[C@@H](C)CNc2ccc(OC(F)(F)F)cc2)cc1 | ++ (++, >100)
O=C(N[C@@H](CCc1ccccc1)CNc1ccc(OC(F)(F)F)cc1)[C@H](CCC1CCCC1)CC(=O)N1CCOCC1 | ++ (++, >100)
CS(=O)(=O)CC[C@@H](CNc1ccc(OC(F)(F)F)cc1)NC(=O)[C@H](CC1CCCCC1)NC(=O)N1CCOCC1 | + (+, >10)

Selectivity for Cat. S over Cat. B for "CC(C)[C@@H](CNc1ccc(OC(F)(F)F)cc1)NC(=O)[C@H](CC(=O)N1CCOCC1)c1ccc(Cl)cc1" is ++ (++, >100)

Selectivity for Cat. S over Cat. B for "C[C@@H](CN1c2ccc(F)cc2CC1(C)C)NC(=O)O[C@@H](CC1CCCCC1)C(=O)N1CCSCC1" is + (+, >10)

Selectivity for Cat. S over Cat. B for "O=C(N[C@H](CN1CC2(CC2)c2cc(F)ccc21)C1CC1)[C@H](CC1CCCCC1)NC(=O)N1CCOCC1" is ++ (++, >100)

----------
study.system: UniProt P07711
Sequence (P07711 114-333, species assumed): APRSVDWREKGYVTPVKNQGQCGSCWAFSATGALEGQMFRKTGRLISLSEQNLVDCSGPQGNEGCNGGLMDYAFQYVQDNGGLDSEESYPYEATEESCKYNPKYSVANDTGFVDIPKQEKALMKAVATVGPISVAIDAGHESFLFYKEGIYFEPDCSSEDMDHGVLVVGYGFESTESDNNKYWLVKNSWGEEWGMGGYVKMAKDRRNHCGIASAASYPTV
method.description: Cathepsin L inhibition, fluorogenic peptide substrate kinetic assay (selectivity)
Type: biochemical
particulars: ratio of cathepsin L inhibition constant to cathepsin S inhibition constant
experimental.readout: Selectivity for Cat. S over Cat. L

COc1ccc([C@H](CC(=O)N2CCOCC2)C(=O)N[C@@H](C)CNc2ccc(OC(F)(F)F)cc2)cc1 [Example 63] | ++ (++, >100)
O=C(N[C@H](CNc1ccc(OC(F)(F)F)cc1)C1CC1)[C@@H](CC(=O)N1CCOCC1)c1ccc(C(F)(F)F)cc1 [Example 70] | ++ (++, >100)
C[C@@H](CNc1ccc(OC(F)(F)F)cc1)NC(=O)[C@H](CCC(C)(C)C)CC(=O)N1CCOCC1 [Example 25] | ++ (++, >100)

----------
study.system: Cathepsin B (Homo sapiens)
method.description: Cathepsin B inhibition, fluorogenic peptide substrate kinetic assay (selectivity);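 further: value is the cathepsin B inhibition constant divided by the cathepsin S one, each from kinetic fluorescence readings (ex 380 nm, em 450 nm) of a 10 µM coumarin peptide substrate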
Format: biochemical
particulars: ratio of cathepsin B inhibition constant to cathepsin S inhibition constant
experimental.readout: Selectivity for Cat. S over Cat. B

Known Selectivity for Cat. S over Cat. B results, listed for orientation:
C[C@@H](CNc1ccc(OC(F)(F)F)cc1)NC(=O)[C@@H](CC(=O)N1CCOCC1)c1ccc(F)cc1 [Example 62] | ++ (++, >100)
CC(C)[C@@H](CNc1ccc(OC(F)(F)F)cc1)NC(=O)[C@@H](CC(=O)N1CCOCC1)C1CCCCC1 [Example 35] | +++ (+++, >1000)
CCC1(O)CCCC(C[C@H](CC(=O)N2CCOCC2)C(=O)N[C@@H](C)CNc2ccc(OC(F)(F)F)cc2)C1 (some centres unmarked) [Example 59] | + (+, >10)
O=C(N[C@H](CNc1ccc(OC(F)(F)F)cc1)c1ccccc1)[C@@H](CC(=O)N1CCOCC1)CC1CCCCC1 [Example 45] | +++ (+++, >1000)
CC(C)[C@@H](CNc1cccc(S(C)(=O)=O)c1)NC(=O)[C@@H](CC(=O)N1CCOCC1)c1ccc(F)cc1 [Example 67] | + (+, >10)

Selectivity for Cat. S over Cat. B for C[C@@H](CN1CCc2cc(F)ccc21)NC(=O)[C@@H](CC(=O)N1CCOCC1)CC1CCCCC1 [Example 8] is +++ (+++, >1000)

Selectivity for Cat. S over Cat. B for Cc1cc(NCCNC(=O)[C@H](CCC(C)(C)C)CC(=O)N2CCOCC2)no1 [Example 49] is + (+, >10)

Selectivity for Cat. S over Cat. B for CC(=O)NS(=O)(=O)c1ccc(NC[C@H](C)NC(=O)O[C@@H](CC2CCCCC2)C(=O)N2CCOCC2)cc1 [Example 89] is + (+, >10)

Selectivity for Cat. S over Cat. B for C[C@@H](CNc1ccc(OC(F)(F)F)cc1)NC(=O)[C@@H](CC(=O)N1CCOCC1)CC1CCCC1 [Example 15] is +++ (+++, >1000)

Selectivity for Cat. S over Cat. B for C[C@@H](CN1c2ccc(F)cc2CC1(C)C)NC(=O)O[C@@H](CC1CCCCC1)C(=O)N1CCN(S(C)(=O)=O)CC1 [Example 95] is + (+, >10)

Selectivity for Cat. S over Cat. B for CC(=O)N1CCN(C(=O)C[C@@H](CC2CCCCC2)C(=O)N[C@@H](C)CNc2ccc(OC(F)(F)F)cc2)CC1 [Example 52] is ++ (++, >100)

----------
study.system: Cathepsin K (Homo sapiens)
method.description: Cathepsin K inhibition, fluorogenic peptide substrate kinetic assay (selectivity)
Type: biochemical
particulars: ratio of cathepsin K inhibition constant to cathepsin S inhibition constant
experimental.readout: Selectivity for Cat. S over Cat. K

Known Selectivity for Cat. S over Cat. K results, listed for orientation:
CC(C)[C@@H](CNc1ccc(OC(F)(F)F)cc1)NC(=O)[C@@H](CC(=O)N1CCOCC1)c1ccc(Cl)cc1 | +++ (+++, >1000)
C[C@@H](CN1CC(C)(C)c2cc(F)ccc21)NC(=O)[C@@H](CC(=O)N1CCOCC1)CC1CCCCC1 | +++ (+++, >1000)
C[C@@H](CNc1ccc(OC(F)(F)F)cc1)NC(=O)[C@H](CCC(C)(C)C)CC(=O)N1CCOCC1 | ++ (++, >100)
O=C(NCCNc1ccc(F)cc1)[C@H](CC1CCCCC1)NC(=O)N1CCOCC1 | ++ (++, >100)
Cc1cc(NC[C@H](C)NC(=O)O[C@@H](CC2CCCCC2)C(=O)N2CCOCC2)no1 | + (+, >10)

Selectivity for Cat. S over Cat. K for "CC(C)[C@@H](CNc1ccc(OC(F)(F)F)cc1)NC(=O)[C@@H](CC(=O)N1CCOCC1)c1ccc(C(F)(F)F)cc1" is +++ (+++, >1000)

Selectivity for Cat. S over Cat. K for "O=C(C[C@@H](CC1CCCCC1)C(=O)N1CCOCC1)NCCNc1ccc(F)cc1" is + (+, >10)

Selectivity for Cat. S over Cat. K for "O=C(N[C@H](CN1CC2(CC2)c2cc(F)ccc21)C1CC1)[C@H](CC1CCCCC1)NC(=O)N1CCOCC1" is ++ (++, >100)

Selectivity for Cat. S over Cat. K for "CC(C)[C@@H](CNc1cccc(S(C)(=O)=O)c1)NC(=O)[C@@H](CC(=O)N1CCOCC1)c1ccc(F)cc1" is + (+, >10)

Selectivity for Cat. S over Cat. K for "CC(C)[C@@H](CNc1ccc(OC(F)(F)F)cc1)NC(=O)[C@@H](CC(=O)N1CCOCC1)c1ccccc1" is + (+, >10)

Selectivity for Cat. S over Cat. K for "O=C(NCCNc1ccc(F)cc1)[C@@H](CC(=O)N1CCOCC1)CC1CCCCC1" is + (+, >10)

Selectivity for Cat. S over Cat. K for "O=C(N[C@H](CNc1ccc(OC(F)(F)F)cc1)c1ccccc1)[C@H](CCC1CCCC1)CC(=O)N1CCOCC1" is +++ (+++, >1000)

Selectivity for Cat. S over Cat. K for "C[C@@H](CNc1ccc(OC(F)(F)F)cc1)NC(=O)[C@@H](CC(=O)N1CCOCC1)CC1CCC2(CC1)CC2" is ++ (++, >100)

Selectivity for Cat. S over Cat. K for "CC(C)[C@@H](CNc1cccnc1)NC(=O)[C@H](CC1CCCCC1)NC(=O)N1CCOCC1" is + (+, >10)

Selectivity for Cat. S over Cat. K for "Cc1ccc([C@H](CC(=O)N2CCOCC2)C(=O)N[C@H](CNc2ccc(OC(F)(F)F)cc2)C(C)C)cc1" is ++ (++, >100)

----------
study.system: Cathepsin K (Homo sapiens, UniProt P43235)
Sequence (P43235 115-329, species assumed): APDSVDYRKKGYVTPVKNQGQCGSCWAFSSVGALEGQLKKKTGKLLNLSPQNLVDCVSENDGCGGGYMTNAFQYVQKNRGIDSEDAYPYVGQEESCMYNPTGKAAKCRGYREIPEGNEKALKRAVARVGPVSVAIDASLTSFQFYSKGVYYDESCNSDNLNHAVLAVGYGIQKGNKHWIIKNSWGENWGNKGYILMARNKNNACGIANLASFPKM
method.description: Cathepsin K inhibition, fluorogenic peptide substrate kinetic assay (selectivity)
Assay type: biochemical
particulars: ratio of cathepsin K inhibition constant to cathepsin S inhibition constant
experimental.readout: Selectivity for Cat. S over Cat. K

O=C(N[C@H](CNc1ccc(OC(F)(F)F)cc1)c1ccccc1)[C@@H](CC(=O)N1CCOCC1)CC1CCCCC1 | ++ (++, >100)
C[C@@H]1CN(C(=O)C[C@@H](CC2CCCCC2)C(=O)N[C@@H](C)CNc2ccc(OC(F)(F)F)cc2)C[C@H](C)O1 | ++ (++, >100)
C[C@@H](CN1c2ccc(F)cc2CC1(C)C)NC(=O)O[C@@H](CC1CCCCC1)C(=O)N1CCSCC1 | + (+, >10)
CC[C@@H](CNc1ccc(OC(F)(F)F)cc1)NC(=O)[C@@H](CC(=O)N1CCOCC1)CC1CCCCC1 | + (+, >10)
